Biological target: proMMP13(1-268) (SEQ ID NO:7) (Homo sapiens)
Construct: 6×-histidine tag (C)
Assay: ProMMP13/Plasmin P126 Activation Assay
Conditions: proMMP13(1-268) activated by plasmin
Reported IC50 values for the following molecules.
readout type: IC50 (nM)

| molecule | measured target | numeric readout |
| --- | --- | --- |
| CC(C)Oc1ccc(S(N)(=O)=O)cc1Nc1nc(-c2ccc(CN3CCN(C)CC3)cc2)cs1 [Example 49] | proMMP13(1-268) (SEQ ID NO:7) (Homo sapiens) | 3400 |
| COc1ccc(F)cc1Nc1nc(-c2ccc(OCCN3CCN(C)CC3)cc2)cs1 [Example 69] | proMMP13(1-268) (SEQ ID NO:7) (Homo sapiens) | 4300 |
| CC(C)Oc1ccc(C(N)=O)cc1Nc1nc(-c2ccc(CN3CCN(C4CC4)CC3)cc2)cs1 [Example 50] | proMMP13(1-268) (SEQ ID NO:7) (Homo sapiens) | 680 |
| CCN1CC=C(c2ccc(-c3csc(Nc4cc(C(N)=O)ccc4OC(C)C)n3)cc2)CC1 [Example 18] | proMMP13(1-268) (SEQ ID NO:7) (Homo sapiens) | 32 |
| CC(C)Oc1ccc(S(N)(=O)=O)cc1Nc1nc(-c2ccc(N3CCNCC3)cc2)cs1 [Example 1] | proMMP13(1-268) (SEQ ID NO:7) (Homo sapiens) | 230 |
| CC(C)Oc1ccc(S(N)(=O)=O)cc1Nc1nc(-c2ccc(OCCN3CCN(C4CC4)CC3)cc2)cs1 [Example 45] | proMMP13(1-268) (SEQ ID NO:7) (Homo sapiens) | 950 |
| CC(C)Oc1ccc(S(N)(=O)=O)cc1Nc1nc(-c2ccc(C3=CCNCC3)cc2)cs1 [Example 12] | proMMP13(1-268) (SEQ ID NO:7) (Homo sapiens) | 340 |
| CC(C)Oc1ccc(S(N)(=O)=O)cc1Nc1nc(-c2ccc(OCCCN3CCOCC3)cc2)cs1 [Example 47] | proMMP13(1-268) (SEQ ID NO:7) (Homo sapiens) | 600 |

* * *

Target: proMMP9(67-444;ΔFnII) (SEQ ID NO:5) (Homo sapiens, UniProt P14780, DEL216-390)
Construct: start methionine (N)
Sequence (P14780 with tags, fused parts or gaps DEL216-390): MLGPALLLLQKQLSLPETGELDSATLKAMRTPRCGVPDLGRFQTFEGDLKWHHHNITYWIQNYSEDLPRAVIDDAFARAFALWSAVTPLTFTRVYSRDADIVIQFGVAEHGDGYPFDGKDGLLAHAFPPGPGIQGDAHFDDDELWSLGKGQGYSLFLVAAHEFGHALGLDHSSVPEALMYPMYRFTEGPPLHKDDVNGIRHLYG
Test: ThermoFluor with proMMP9(67-444;ΔFnII)
Conditions: read-out: proMMP9(67-444; ΔFnII) (SEQ ID NO: 5) binding
readout type: log10 Kd (log10 of the value in nM)

| smiles | readout type | numeric readout |
| --- | --- | --- |
| CC(C)Oc1ccc(C(N)=O)cc1Nc1nc(-c2ccc(CN3CCN(C4CC4)CC3)cc2)cs1 | log10 Kd | 2.00 |
| CC(C)Oc1ccc(S(N)(=O)=O)cc1Nc1nc(-c2ccc(C3CCN(C)CC3)cc2)cs1 | log10 Kd | 1.48 |
| CC(C)Cc1ccc(C(N)=O)cc1Nc1nc(-c2ccc(OCCN3CCC(F)CC3)cc2)cs1 | log10 Kd | 2.82 |
| CC(C)Oc1ccc(S(N)(=O)=O)cc1Nc1nc(-c2ccc(OCCCN3CCOCC3)cc2)cs1 | log10 Kd | 1.89 |
| COc1ccc(F)cc1Nc1nc(-c2ccc(CN3CCOCC3)cc2)cs1 | log10 Kd | 3.79 |
| CC(C)Oc1ccc(C(N)=O)cc1Nc1nc(-c2ccc(N3CCN(C)CC3)cc2)cs1 | log10 Kd | 1.83 |
| CCOc1ccncc1Nc1nc(-c2ccc(C3=CCNCC3)cc2)cs1 | log10 Kd | 1.84 |
| CC(C)Oc1ccc(C(N)=O)cc1Nc1nc(-c2ccc(C3=CCN(C(C)C)CC3)cc2)cs1 | log10 Kd | 1.32 |

* * *

Biological target: full-length proMMP9(1-707) (SEQ ID NO:1) (Homo sapiens, UniProt P14780, R574P)
Construct: E. coli (MMP3)
Sequence (P14780 20-707 R574P): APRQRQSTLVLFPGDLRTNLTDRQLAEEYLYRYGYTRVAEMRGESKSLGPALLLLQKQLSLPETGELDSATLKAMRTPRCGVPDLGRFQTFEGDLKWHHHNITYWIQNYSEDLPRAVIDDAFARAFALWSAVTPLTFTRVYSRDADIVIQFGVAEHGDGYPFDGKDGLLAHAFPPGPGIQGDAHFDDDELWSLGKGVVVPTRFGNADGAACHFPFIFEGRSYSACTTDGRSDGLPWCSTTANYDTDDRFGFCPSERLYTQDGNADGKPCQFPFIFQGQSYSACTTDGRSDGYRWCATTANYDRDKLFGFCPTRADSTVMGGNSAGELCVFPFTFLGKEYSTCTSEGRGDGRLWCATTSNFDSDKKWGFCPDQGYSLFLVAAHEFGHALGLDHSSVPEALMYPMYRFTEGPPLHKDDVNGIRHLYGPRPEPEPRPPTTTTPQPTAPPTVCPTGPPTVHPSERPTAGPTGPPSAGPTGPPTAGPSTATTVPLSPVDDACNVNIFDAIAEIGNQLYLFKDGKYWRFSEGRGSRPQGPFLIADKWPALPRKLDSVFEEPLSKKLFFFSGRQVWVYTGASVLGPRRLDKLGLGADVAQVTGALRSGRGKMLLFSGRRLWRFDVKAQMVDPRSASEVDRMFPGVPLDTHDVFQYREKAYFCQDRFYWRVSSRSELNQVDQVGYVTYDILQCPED
Experiment: proMMP9/MMP3 P126 Activation Assay
Conditions: proMMP9(1-707) from HEK293 cells activated by catalytic MMP3
pIC50: −log10 of the molar value.
readout type: pIC50

| smiles | result qualifier | numeric readout |
| --- | --- | --- |
| CCN1CCN(c2ccc(-c3csc(Nc4cc(C(N)=O)ccc4OC(C)C)n3)cc2)CC1 | = | 7.05 |
| COc1ccc(F)cc1Nc1nc(-c2ccc(OCCN3CCC(F)(F)CC3)cc2)cs1 | ≤ | 4.70 |
| CC(C)Oc1ccc(S(N)(=O)=O)cc1Nc1nc(-c2ccc(OCCCN3CCOCC3)cc2)cs1 | = | 7.12 |
| COc1cc(C)c(C(N)=O)cc1Nc1nc(-c2ccc(OCCN3CCC(F)CC3)cc2)cs1 | = | 6.14 |

* * *

Reported IC50 values for the following compounds.
Biological target: full-length proMMP9(1-707) (SEQ ID NO:1) (Homo sapiens, UniProt P14780, R574P)
Construct: E. coli (MMP3)
Assay: proMMP9/MMP3 P126 Activation Assay
Conditions: proMMP9(1-707) from HEK293 cells activated by catalytic MMP3
readout type: IC50 (nM)

| smiles | readout type | output unit | numeric readout |
| --- | --- | --- | --- |
| CC(C)Oc1ccc(S(N)(=O)=O)cc1Nc1nc(-c2ccc(OCCN3CCOCC3)cc2)cs1 | IC50 | nM | 100 |
| CCOc1ccncc1Nc1nc(-c2ccc(C3=CCN(C(C)C)CC3)cc2)cs1 | IC50 | nM | 60 |
| COc1ccc(F)cc1Nc1nc(-c2ccc(CN3CCC(F)CC3)cc2)cs1 | IC50 | nM | 1600 |
| CC(C)Oc1ccc(S(N)(=O)=O)cc1Nc1nc(-c2ccc(N3CCN(Cc4ccccc4)CC3)cc2)cs1 | IC50 | nM | 1200 |
| COc1ccc(F)cc1Nc1nc(-c2ccc(CN3CCOCC3)cc2)cs1 | IC50 | nM | 2000 |
| CC(C)Oc1ccc(S(N)(=O)=O)cc1Nc1nc(-c2ccc(CN3CCN(C4CC4)CC3)cc2)cs1 | IC50 | nM | 110 |
| CC(C)Oc1ccc(S(N)(=O)=O)cc1Nc1nc(-c2ccc(N3CCN(C)CC3)cc2)cs1 | IC50 | nM | 74 |
| CCOc1ccncc1Nc1nc(-c2ccc(C3=CCN(CC)CC3)cc2)cs1 | IC50 | nM | 69 |

* * *

Molecular target: proMMP9(67-444;ΔFnII) (SEQ ID NO:5) (Homo sapiens, UniProt P14780, DEL216-390)
Construct: start methionine (N)
Experiment: ThermoFluor with proMMP9(67-444;ΔFnII)
Settings: read-out: proMMP9(67-444; ΔFnII) (SEQ ID NO: 5) binding
pKd: −log10 of the molar value.

| smiles | pKd |
| --- | --- |
| CCOc1ccncc1Nc1nc(-c2ccc(OCCN3CCC(F)CC3)cc2)cs1 | 7.02 |
| CC(C)Oc1ccc(S(N)(=O)=O)cc1Nc1nc(-c2ccc(OCCN3CCC(F)(F)CC3)cc2)cs1 | 6.82 |
| CC(C)Oc1ccc(S(N)(=O)=O)cc1Nc1nc(-c2ccc(OCCN3CCN(C4CC4)CC3)cc2)cs1 | 7.25 |
| CC(C)Oc1ccc(C(N)=O)cc1Nc1nc(-c2ccc(N3CCN(Cc4ccccc4)CC3)cc2)cs1 | 6.06 |

* * *

Target: proMMP9(67-444;ΔFnII) (SEQ ID NO:5) (Homo sapiens, UniProt P14780, DEL216-390)
Construct: start methionine (N)
Test: ThermoFluor with proMMP9(67-444;ΔFnII)
Conditions: read-out: proMMP9(67-444; ΔFnII) (SEQ ID NO: 5) binding

| molecule | Kd [nM] |
| --- | --- |
| COc1ccc(F)cc1Nc1nc(-c2ccc(OCCN3CCOCC3)cc2)cs1 [Example 66] | 2900 |
| CC(C)Oc1ccc(S(N)(=O)=O)cc1Nc1nc(-c2ccc(N3CCN(Cc4ccccc4)CC3)cc2)cs1 [Example 6] | 650 |
| COc1ccc(F)cc1Nc1nc(-c2ccc(CN3CCN(C4CC4)CC3)cc2)cs1 [Example 60] | 9400 |
| NS(=O)(=O)c1ccc(OC(F)(F)F)c(Nc2nc(-c3ccc(OCCN4CCOCC4)cc3)cs2)c1 [Example 30] | 1300 |
| CC(C)Oc1ccc(C(N)=O)cc1Nc1nc(-c2ccc(OCCN3CCN(C)CC3)cc2)cs1 [Example 42] | 78 |
| CC(C)Oc1ccc(S(N)(=O)=O)cc1Nc1nc(-c2ccc(C3=CCNCC3)cc2)cs1 [Example 12] | 12 |
| COc1ccc(F)cc1Nc1nc(-c2ccc(CN3CCN(C(C)C)CC3)cc2)cs1 [Example 63] | 960 |
| CCN1CCN(c2ccc(-c3csc(Nc4cc(S(N)(=O)=O)ccc4OC(C)C)n3)cc2)CC1 [Example 4] | 100 |
| CCN1CCN(c2ccc(-c3csc(Nc4cc(C(N)=O)ccc4OC(C)C)n3)cc2)CC1 [Example 9] | 94 |
| CC(C)Oc1ccc(C(N)=O)cc1Nc1nc(-c2ccc(OCCN3CCN(C4CC4)CC3)cc2)cs1 [Example 44] | 110 |
| CC(C)Oc1ccc(C(N)=O)cc1Nc1nc(-c2ccc(OCCCN3CCOCC3)cc2)cs1 [Example 46] | 99 |
